Biological target: BRDT(2) (Homo sapiens, UniProt Q58F21)
Construct: made in house
Assay: Protein stability (thermal) shift assay, BRDT(2)
Type: binding
Conditions: compound 10 μM, protein 2 μM; average of triplicate; read-out: ΔTm Shift, BRDT(2)
Here the recorded ΔTm at 10 µM is given for each entry.
Don't forget the unit after the number, please.

Example entries and their recorded answers appear below.
>>> result("COc1ccc(Br)cc1-c1nc(O)nc2[nH]cnc12 [Compound 8f]")
"1 °C"
>>> result("Nc1nc(-c2ccc(Oc3ccccc3)cc2)c2nc[nH]c2n1 [Compound 3d, 2-Amino-6-(4-phenoxyphenyl)-9H-purine]")
"0.3 °C"

Query block: Returns the measured ΔTm at 10 µM for the input molecule. Input: Nc1nc(-c2ccc(COc3cccc(C(F)(F)F)c3)cc2)c2nc[nH]c2n1 [Compound 3g]
Result block: 0.271 °C

Query block: Returns the measured ΔTm at 10 µM for the input molecule. Input: COc1ccccc1-c1nc(N)nc2[nH]cnc12 [Compound 7a, 2-Amino-6-(2-methoxyphenyl)-9H-purine]
Result block: 1.4 °C

Query block: Returns the measured ΔTm at 10 µM for the input molecule. Input: CCCCOc1cc(Br)cc(-c2nc(N)nc3c2ncn3C)c1 [Compound 5b]
Result block: 1 °C

Query block: Returns the measured ΔTm at 10 µM for the input molecule. Input: Cn1cnc2c(Br)nc(N)nc21 [Compound 2b, 2-Amino-6-bromo-9-methylpurine]
Result block: -0.4 °C

Query block: Returns the measured ΔTm at 10 µM for the input molecule. Input: COCCc1ccc(OCc2ccc(-c3nc(N)nc4[nH]cnc34)cc2)cc1 [Compound 3h]
Result block: 0.7 °C

Query block: Returns the measured ΔTm at 10 µM for the input molecule. Input: COc1ccc(Br)cc1-c1nc(Cl)nc2[nH]cnc12 [Compound 8a]
Result block: -0.164 °C

Query block: Returns the measured ΔTm at 10 µM for the input molecule. Input: Nc1nc(-c2ccc(OCc3ccccc3)c(Cl)c2)c2nc[nH]c2n1 [Compound 4a]
Result block: 0.224 °C

Query block: Returns the measured ΔTm at 10 µM for the input molecule. Input: Nc1nc(-c2ccccc2)c2nc[nH]c2n1 [Compound 3a, 2-Amino-6-phenyl-9H-purine]
Result block: 0.7 °C

Query block: Returns the measured ΔTm at 10 µM for the input molecule. Input: CCOc1ccc(Br)cc1-c1nc(N)nc2[nH]cnc12 [Compound 7e]
Result block: 1.5 °C
